# Organism: Sus scrofa
# Test name: Inhibition of H+/K+ ATPase in pig stomach at 1 uM
# Assay type: tissue-based
Measured attribute: inhibition (%)

Recorded inhibition, per entry:
{"Compound structure": "COC(=O)[C@]1(C)CCC[C@@]2(C)[C@H]1[C@H](OC(=O)c1ccccc1)C[C@H]1C/C(=N\\O)[C@@]3(C)CC[C@]12C3", "Units text": "%", "inhibition": 24}
{"Compound structure": "CC(=O)O[C@H]1C[C@@H]2C[C@@H](OC(=O)c3ccccc3)[C@H]3[C@](C)(C(=O)O)CCC[C@]3(C)[C@]23CC[C@@]1(C)C3", "Units text": "%", "inhibition": 3}
{"Compound structure": "COC(=O)[C@]1(C)CCC[C@@]2(C)[C@H]1[C@H](O)C[C@H]1CC(=O)[C@@]3(C)CC[C@]12C3", "Units text": "%", "inhibition": -5}
{"Compound structure": "CC(=O)OC[C@]1(C)CCC[C@@]2(C)[C@H]1[C@H](OC(=O)c1ccccc1)C[C@H]1CC(=O)[C@@]3(C)CC[C@]12C3", "Units text": "%", "inhibition": 40}
{"Compound structure": "COC(=O)[C@]1(C)CCC[C@@]2(C)[C@H]1[C@H](OC(=O)c1ccccc1)C[C@H]1C[C@@H](OC(C)=O)[C@@]3(C)CC[C@]12C3", "Units text": "%", "inhibition": 35}

I: C[C@@]12CC[C@]3(C1)[C@H](CC2=O)C[C@@H](OC(=O)c1ccccc1)[C@H]1[C@](C)(CO)CCC[C@@]13C
II: CC(=O)OC[C@]1(C)CCC[C@@]2(C)[C@H]1[C@H](OC(C)=O)C[C@H]1C[C@H](OC(C)=O)[C@@]3(C)CC[C@]12C3
Which value of inhibition is greater, the one for I or the one for II ? # reply format: chosen label
II
(II: 13%, I: -1%)

###

# Species: Sus scrofa
# Test name: Inhibition of H+/K+ ATPase in pig stomach at 10 uM
# Format: tissue-based
Measured attribute: inhibition (%)

Recorded inhibition, per entry:
{"Compound structure": "COC(=O)[C@]1(C)CCC[C@@]2(C)[C@H]1[C@H](O)C[C@H]1CC(=O)[C@@]3(C)CC[C@]12C3", "inhibition, %": 4}
{"Compound structure": "COC(=O)[C@]1(C)CCC[C@@]2(C)[C@H]1[C@H](OC(=O)c1ccccc1)C[C@H]1CC(=O)[C@@]3(C)CC[C@]12C3", "inhibition, %": 74}
{"Compound structure": "CC(=O)OC[C@]1(C)CCC[C@@]2(C)[C@H]1[C@H](O)C[C@H]1C[C@H](OC(C)=O)[C@@]3(C)CC[C@]12C3", "inhibition, %": 40}
{"Compound structure": "COC(=O)[C@]1(C)CCC[C@@]2(C)[C@H]1[C@H](OC(=O)c1ccccc1)C[C@H]1C[C@H](O)[C@@]3(C)CC[C@]12C3", "inhibition, %": 64}
{"Compound structure": "COC(=O)[C@]1(C)CCC[C@@]2(C)[C@H]1[C@H](O)C[C@H]1C[C@H](O)[C@@]3(C)CC[C@]12C3", "inhibition, %": 5}
{"Compound structure": "C[C@]12CC[C@]3(C1)[C@H](C[C@H]2O)C[C@@H](OC(=O)c1ccccc1)[C@H]1[C@](C)(C(=O)O)CCC[C@@]13C", "inhibition, %": 3}
{"Compound structure": "COC(=O)[C@]1(C)CCC[C@@]2(C)[C@H]1[C@H](OC(=O)c1ccccc1)C[C@H]1C[C@@H](OC(C)=O)[C@@]3(C)CC[C@]12C3", "inhibition, %": 58}
{"Compound structure": "C[C@@]12CC[C@]3(C1)[C@H](CC2=O)C[C@@H](OC(=O)c1ccccc1)[C@H]1[C@](C)(CO)CCC[C@@]13C", "inhibition, %": 21}

1: C[C@]12CC[C@]3(C1)[C@H](C/C2=N\O)C[C@@H](OC(=O)c1ccccc1)[C@H]1[C@](C)(C(=O)O)CCC[C@@]13C
2: CC(=O)O[C@H]1C[C@@H]2C[C@@H](O)[C@H]3[C@](C)(C(=O)O)CCC[C@]3(C)[C@]23CC[C@@]1(C)C3
3: COC(=O)[C@]1(C)CCC[C@@]2(C)[C@H]1[C@H](OC(=O)c1ccccc1)C[C@H]1C[C@H](OC(C)=O)[C@@]3(C)CC[C@]12C3
4: CC(=O)O[C@@H]1C[C@H]2CC(=O)[C@@]3(C)CC[C@@]2(C3)[C@@]2(C)CCC[C@@](C)(C(=O)O)[C@H]12
5: C[C@]12CC[C@]3(C1)[C@@H](CC(=O)[C@H]1[C@](C)(C(=O)O)CCC[C@@]13C)CC2=O
# rank by inhibition, ascending (min first) Thanks in advance for listing the labels in the requested order.
5, 4, 2, 1, 3

Values were extracted from ChEMBL document CHEMBL1158957.
